Assay: yeast display, Sf9 membrane polyspecificity reagent, FACS + sequencing; frameworks hold sequencing errors
Parameter measured: polyreactivity (PSR sort gate)

>  <Sequence content>
QVQLVESGGGLVQAGGSLRLSCAASGFTLGYYAMGWDRQAPGKERELVASISITAGSTYYAVSVMGRLTISRDNAKNTVYLQMNSLKPEDTAVYYCAAKRRTRQSYYTVYYWGQGTQVTVSS

>  <Parameter measured>
polyreactivity (PSR sort gate)

>  <Meas value>
high polyreactivity

$$$$
>  <Sequence content>
QVQLQESGGGLVQAGGSLRPSCAASGSISDGVPMGWYRQAPGEERELVATTVLGATTNYADSVKGRFTISRGNAKNTVYLQMNSLKPEETEVYYCAAPLRYDKGFSYWGQGTQVTVSS

>  <Parameter measured>
polyreactivity (PSR sort gate)

>  <Meas value>
low polyreactivity

$$$$
>  <Sequence content>
QVQLVESGGGLVQAGGSLRLSCAASGATFYVYAMGWYRQAPGKERELVAAIRYRGGTTHYADSVKGRFTISRDNAKNTVYVQMNSLKPEDTAVYYCAADGYVYRSGRRYDYWGQGTQVTVSS

>  <Parameter measured>
polyreactivity (PSR sort gate)

>  <Meas value>
high polyreactivity

$$$$
>  <Sequence content>
QVQLVESGGGLVQAGGSLRLSCAASGSTFDSNVMGWYRQAHGKERELLAAINYSGVRTYYADSVKGRFTISRDNAKNTVYLQMNSLKPEDTAVYYCNARLFSYRYPEGGYWGQGTQVTVSS

>  <Parameter measured>
polyreactivity (PSR sort gate)

>  <Meas value>
high polyreactivity

$$$$
>  <Sequence content>
QDQLVESGGGLVQAGGSLRLSCAASGSTFVANDMGWYRQAPGKERELVASISDGSSTYADSVKGRFTISRDNAKNTVYLQMNSLKPEDTAVYYCAKDGSLDAQSYDYDYWGQGTQVTVSS

>  <Parameter measured>
polyreactivity (PSR sort gate)

>  <Meas value>
low polyreactivity

$$$$
